Values from patent US20070072897A1

# test.target: human hNET (Homo sapiens, UniProt P23975)
# Sequence (P23975 whole entry): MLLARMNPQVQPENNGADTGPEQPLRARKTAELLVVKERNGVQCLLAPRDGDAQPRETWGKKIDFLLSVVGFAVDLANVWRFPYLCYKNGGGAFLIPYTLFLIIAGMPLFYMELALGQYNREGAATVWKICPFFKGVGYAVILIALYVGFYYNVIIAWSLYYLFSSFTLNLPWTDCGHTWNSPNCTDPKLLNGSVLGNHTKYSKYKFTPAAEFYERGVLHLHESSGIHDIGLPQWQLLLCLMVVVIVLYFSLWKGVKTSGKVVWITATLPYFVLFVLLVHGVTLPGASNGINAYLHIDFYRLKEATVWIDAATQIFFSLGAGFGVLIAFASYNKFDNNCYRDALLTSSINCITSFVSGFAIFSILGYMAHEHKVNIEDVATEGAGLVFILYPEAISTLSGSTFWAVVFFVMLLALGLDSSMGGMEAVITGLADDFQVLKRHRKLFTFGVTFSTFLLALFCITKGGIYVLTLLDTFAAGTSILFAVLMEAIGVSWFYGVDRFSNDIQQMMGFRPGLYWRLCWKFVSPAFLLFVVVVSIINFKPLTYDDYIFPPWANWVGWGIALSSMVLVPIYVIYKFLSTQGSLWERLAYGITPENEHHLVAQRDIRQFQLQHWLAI
# assay.remarks: Norepinephrine (NE) uptake assay in MDCK-Net6 cells
# particulars: [3H]NE uptake, MDCK-Net6 cells stably transfected with hNET
Counter-ions that a name gives are not always drawn.
recorded.endpoint: pEC50
Formally, pEC50 is defined as -log10 of the concentration c, with c in mol/L.

> print(dat)
                                   compound  recorded.endpoint  measurement
1  CNC[C@@H](O)[C@H](c1ccccc1)n1ccc2cc(OCc3ccc(C)cc3)ccc21 [Example 16, hydrochloride]              pEC50         7.43
2  CNC[C@@H](O)[C@H](c1ccccc1)N1C(=O)C2(CCCCC2)c2cc(Cl)ccc21 [Example 27, hydrochloride]              pEC50         7.05
3  CNC[C@@H](O)[C@H](c1ccccc1)n1ccc2cc(OCc3ccccn3)ccc21 [Example 92, hydrochloride]              pEC50         8.05
4  CCOc1ccccc1-c1cn([C@@H](c2cccc(F)c2)[C@H](O)CNC)c2ccccc12 [Example 42, hydrochloride]              pEC50         7.15
5  CNC[C@@H](O)[C@H](c1cccc(F)c1)n1cc(-c2cc(F)ccc2F)c2ccccc21 [Example 39, hydrochloride]              pEC50         7.15

Form field pEC50, entry CNC[C@@H](O)[C@H](c1ccccc1)n1ccc2cc(CCc3ccccc3)ccc21 [Example 94, hydrochloride] : 7.07

Form field pEC50, entry CNC[C@@H](O)[C@H](c1ccccc1)n1ccc2cc(OCc3cccc(Cl)c3)ccc21 [Example 9, hydrochloride] : 7.05

---

# test.target: human hNET (Homo sapiens)
# assay.remarks: Norepinephrine (NE) uptake assay in MDCK-Net6 cells
# particulars: [3H]NE uptake, MDCK-Net6 cells stably transfected with hNET
Where a name gives a salt, the structure may show the parent alone.
Quick list: EC50 per entry.
Please give a number only; it is taken to be in nM.

> print(dat)
                                   compound                test.target  recorded.endpoint  measurement
1  CNC[C@@H](O)[C@H](c1cccc(F)c1)n1ccc2cc(OC)nc(Cl)c21 [Example 43, hydrochloride]  human hNET (Homo sapiens)               EC50          299
2  CC1(C)C(=O)N([C@@H](c2cc(F)cc(F)c2)[C@H](O)CN)c2c(F)cccc21 [Example 122]  human hNET (Homo sapiens)               EC50          207
3  CNC[C@@H](O)[C@H](c1cccc(F)c1)n1c(=O)n(-c2ccccc2)c2cccc(F)c21 [Example 120, hydrochloride]  human hNET (Homo sapiens)               EC50           92

// below: EC50 requested for another compound
Form field EC50, entry CNC[C@@H](O)[C@H](c1cc(F)cc(Cl)c1)N1CCc2ccccc21 [Example 113, hydrochloride] : 33
